# ASSAY SYSTEM: thrombin (UniProt P00734+P00734)
# METHOD: FP
# EXPERIMENTAL CONDITIONS: T3 replaced by 5-ethynyl-dU clicked to inactivated N-acyl sulfonamide biotin warhead 2b
READOUT KIND: Kd (nM)
The answer is to be given in nM; state only the numeric part.

Missing value: Kd, thrombin (UniProt P00734+P00734), entry GGTTGGTGTGGTTGG [TBA(3)-2b] . Fill in?
395

---

# ASSAY SYSTEM: thrombin (UniProt P00734+P00734)
# METHOD: FP
# EXPERIMENTAL CONDITIONS: T9 replaced by 5-ethynyl-dU clicked to inactivated N-acyl sulfonamide biotin warhead 2b
READOUT KIND: pKd
On this scale, pKd is minus log10 of a concentration expressed in M (mol/L).

What does the record list as pKd for GGTTGGTGTGGTTGG [TBA(9)-2b] ?
6.28
